IC50 overview
Biological target: SARS-CoV-2 spike receptor-binding domain (RBD) (SARS-CoV-2, UniProt P0DTC2 319-541)
Assay: indirect ELISA on coated RBD ('ELISA affinity')
value-type: IC50 (nM)

>>> readout_number("Nb24 (VHH) VHH: QVQLVESGGGLVQAGGSLRLTCAASGGTFSTSTMDMGWFRQAPGKEREFVALDSWNGGRTYYADSVKGRFTISRDNAKNTLYLQMNSLKPEDTAVYYCAADTYSNYEKDDSWGYWGQGTQVTVSS")
0.77
>>> readout_number("Nb12 (VHH) VHH: HVQLVESGGGLVQAGGSLRLTCAASGGTFSTSTMDMGWFRQAPGKEREFVAVDSWNDGRAYYADSVKGRFTISRDSAKTTLYLQMNSLKPEDTAVYYCAARTERGVYDYWGRGTQVTVSS")
539
>>> readout_number("Nb48 (VHH) VHH: HVQLVESGGGLVQAGGSLRLSCAASGSIFRHYNMGWFRQAPGKEREFVSAISWTNIGTYYADSVKGRFSISRDNNRNTAYLEMNSLKPEDTAVYYCAADRSEFGSRLYSDENEYDYWGQGTQVTVSS")
1.08
>>> readout_number("Nb3 (VHH) VHH: HVQLVESGGGLVQAGGSLRLSCVASGSGFEPNAMGWYRQAPGKQRELVAGITSGGNTNYADSVKGRFTISRDNVKNTVYLQMNSLKPEDTAVYYCNAVAPRINPRGSPTNYWGQGTQVTVSS")
0.48

All figures here come from patent US20240043505A1.
